# assay_target: human activated Factor X (human, UniProt P00742 41-179; P00742 235-488)
# Sequence (P00742 41-179, chain 1 of 2): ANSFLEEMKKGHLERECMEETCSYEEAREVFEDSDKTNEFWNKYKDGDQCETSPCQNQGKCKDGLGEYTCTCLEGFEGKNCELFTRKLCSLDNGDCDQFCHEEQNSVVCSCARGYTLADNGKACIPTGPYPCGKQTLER
# Sequence (P00742 235-488, chain 2 of 2): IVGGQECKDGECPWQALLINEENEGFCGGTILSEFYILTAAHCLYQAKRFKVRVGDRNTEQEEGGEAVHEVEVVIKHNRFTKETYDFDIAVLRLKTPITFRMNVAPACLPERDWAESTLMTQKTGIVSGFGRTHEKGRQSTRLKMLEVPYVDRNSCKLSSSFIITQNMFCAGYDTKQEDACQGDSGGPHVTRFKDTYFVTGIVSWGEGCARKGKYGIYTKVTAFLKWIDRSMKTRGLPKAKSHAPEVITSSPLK
# protocol_summary: cell-based or functional assay
readout_kind: FXa amidolytic activity (relative to free FXa, fold)
Enter your answer as a number in fold; do not include the unit.

Some binders with known FXa amidolytic activity (relative to free FXa, fold) results, for comparison:
binder	test_result
Nb 730C03 (VHH, monovalent Nanobody; also called Nb 730003; not shown: C-terminal FLAG3 and HIS6 tag) VHH: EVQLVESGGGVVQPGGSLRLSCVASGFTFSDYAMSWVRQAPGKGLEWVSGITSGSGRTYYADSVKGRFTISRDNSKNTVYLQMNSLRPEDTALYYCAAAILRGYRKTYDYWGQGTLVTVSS	1.01
Nb 701C06 (VHH, monovalent Nanobody; not shown: C-terminal FLAG3 and HIS6 tag) VHH: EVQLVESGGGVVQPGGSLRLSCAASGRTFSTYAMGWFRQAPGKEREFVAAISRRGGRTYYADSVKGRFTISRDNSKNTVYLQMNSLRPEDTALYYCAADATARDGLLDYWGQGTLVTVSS	1.06
Nb 721E08 (VHH, monovalent Nanobody; not shown: C-terminal FLAG3 and HIS6 tag) VHH: EVQLVESGGGVVQPGGSLRLSCAASGRTFSTYSMGWFRQAPGKEREFVAAITRRGSRTYYADSVKGRFTISRDNSKNTVYLQMNSLRPEDTALYYCAADRRPADSYLDYWGQGTLVTVSS	1.07
Nb 702C12 (VHH, monovalent Nanobody; not shown: C-terminal FLAG3 and HIS6 tag) VHH: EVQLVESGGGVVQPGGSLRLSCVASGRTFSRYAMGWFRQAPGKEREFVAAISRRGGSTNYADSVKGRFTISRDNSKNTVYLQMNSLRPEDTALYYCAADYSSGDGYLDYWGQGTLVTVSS	1.05

(Q) Quick one: FXa amidolytic activity (relative to free FXa, fold) of Nb 729C08 (VHH, monovalent Nanobody; also called Nb 729008; not shown: C-terminal FLAG3 and HIS6 tag) VHH: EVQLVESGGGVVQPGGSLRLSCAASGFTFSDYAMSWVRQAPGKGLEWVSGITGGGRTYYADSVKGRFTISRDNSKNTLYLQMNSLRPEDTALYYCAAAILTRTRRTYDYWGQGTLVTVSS ?
(A) 1.09

(Q) Given the binder Nb 701D07 (VHH, monovalent Nanobody; not shown: C-terminal FLAG3 and HIS6 tag) VHH: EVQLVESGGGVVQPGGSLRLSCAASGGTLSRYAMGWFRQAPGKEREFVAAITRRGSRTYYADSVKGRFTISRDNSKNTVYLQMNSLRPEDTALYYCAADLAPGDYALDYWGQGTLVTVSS , what is its reported FXa amidolytic activity (relative to free FXa, fold)?
(A) 1.05

(Q) Consider the binder Nb 701B09 (VHH, monovalent Nanobody; also called Nb 701609; not shown: C-terminal FLAG3 and HIS6 tag) VHH: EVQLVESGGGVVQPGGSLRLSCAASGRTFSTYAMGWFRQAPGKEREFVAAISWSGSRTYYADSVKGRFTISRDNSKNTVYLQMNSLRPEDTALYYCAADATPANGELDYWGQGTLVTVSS and give its measured FXa amidolytic activity (relative to free FXa, fold).
(A) 1.06

(Q) # FXa amidolytic activity (relative to free FXa, fold) lookup, item Nb 729A04 (VHH, monovalent Nanobody; not shown: C-terminal FLAG3 and HIS6 tag) VHH: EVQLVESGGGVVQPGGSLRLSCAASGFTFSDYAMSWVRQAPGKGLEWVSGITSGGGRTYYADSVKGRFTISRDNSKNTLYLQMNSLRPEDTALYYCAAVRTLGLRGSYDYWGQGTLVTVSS
(A) 1.11
